The measurements presented in this section are drawn from ChEMBL document CHEMBL3112395.

Tested on: Enterococcus faecalis
assayInfo: Antibacterial activity against Enterococcus faecalis ATCC 29212 assessed as growth inhibition by broth dilution method
Type: functional
propertyMeasured: MIC

- CC[C@H](C)[C@@H](NC(=O)[C@@H](NC(=O)[C@H](CCC(=O)O)NC(=O)[C@H](Cc1ccccc1)NC(=O)[C@@H](CCN)NC(=O)[C@H](CCN)NC(=O)[C@H](CO)NC(=O)[C@@H](Cc1c[nH]c2ccccc12)NC(=O)[C@@H](CO)NC(=O)CNC(=O)[C@@H](CCN)NC(=O)[C@H](N)C(C)C)C(C)C)C(=O)N[C@@H](C)C(=O)O: > 100 µg/mL
- CCCCCCCC(=O)N[C@@H](C(=O)N[C@H](CCN)C(=O)NCC(=O)N[C@H](CO)C(=O)N[C@H](Cc1c[nH]c2ccccc12)C(=O)N[C@@H](CO)C(=O)N[C@@H](CCN)C(=O)N[C@H](CCN)C(=O)N[C@@H](Cc1ccccc1)C(=O)N[C@@H](CCC(=O)O)C(=O)N[C@H](C(=O)N[C@@H](C(=O)N[C@@H](C)C(=O)O)[C@@H](C)CC)C(C)C)C(C)C: 100 µg/mL
- CC[C@H](C)CC[C@@H](O)CC(=O)N[C@@H](C(=O)N[C@H](CCN)C(=O)NCC(=O)N[C@H](CO)C(=O)N[C@H](Cc1c[nH]c2ccccc12)C(=O)N[C@@H](CO)C(=O)N[C@@H](CCN)C(=O)N[C@H](CCN)C(=O)N[C@@H](Cc1ccccc1)C(=O)N[C@@H](CCC(=O)O)C(=O)N[C@H](C(=O)N[C@@H](C(=O)N[C@@H](C)C(=O)O)[C@@H](C)CC)C(C)C)C(C)C: > 100 µg/mL
- CCCCCCC(=O)N[C@@H](C(=O)N[C@H](CCN)C(=O)NCC(=O)N[C@H](CO)C(=O)N[C@H](Cc1c[nH]c2ccccc12)C(=O)N[C@@H](CO)C(=O)N[C@@H](CCN)C(=O)N[C@H](CCN)C(=O)N[C@@H](Cc1ccccc1)C(=O)N[C@@H](CCC(=O)O)C(=O)N[C@H](C(=O)N[C@@H](C(=O)N[C@@H](C)C(=O)O)[C@@H](C)CC)C(C)C)C(C)C: > 100 µg/mL

====

Tested on: Klebsiella pneumoniae
assayInfo: Antibacterial activity against Klebsiella pneumoniae ATCC 13883 assessed as growth inhibition by broth dilution method
Type: functional
propertyMeasured: MIC

* CCCCCCCCCCCCCC(=O)N[C@@H](C(=O)N[C@H](CCN)C(=O)NCC(=O)N[C@H](CO)C(=O)N[C@H](Cc1c[nH]c2ccccc12)C(=O)N[C@@H](CO)C(=O)N[C@@H](CCN)C(=O)N[C@H](CCN)C(=O)N[C@@H](Cc1ccccc1)C(=O)N[C@@H](CCC(=O)O)C(=O)N[C@H](C(=O)N[C@@H](C(=O)N[C@@H](C)C(=O)O)[C@@H](C)CC)C(C)C)C(C)C | > 100 µg/mL
* CC[C@H](C)[C@@H](NC(=O)[C@@H](NC(=O)[C@H](CCC(=O)O)NC(=O)[C@H](Cc1ccccc1)NC(=O)[C@@H](CCN)NC(=O)[C@H](CCN)NC(=O)[C@H](CO)NC(=O)[C@@H](Cc1c[nH]c2ccccc12)NC(=O)[C@@H](CO)NC(=O)CNC(=O)[C@@H](CCN)NC(=O)[C@H](NC(=O)CCc1c2ccccc2cc2ccccc12)C(C)C)C(C)C)C(=O)N[C@@H](C)C(=O)O | 12.5 µg/mL
* CC[C@H](C)[C@@H](NC(=O)[C@@H](NC(=O)[C@H](CCC(=O)O)NC(=O)[C@H](Cc1ccccc1)NC(=O)[C@@H](CCN)NC(=O)[C@H](CCN)NC(=O)[C@H](CO)NC(=O)[C@@H](Cc1c[nH]c2ccccc12)NC(=O)[C@@H](CO)NC(=O)CNC(=O)[C@@H](CCN)NC(=O)[C@H](NC(=O)CC12CC3CC(CC(C3)C1)C2)C(C)C)C(C)C)C(=O)N[C@@H](C)C(=O)O | 12.5 µg/mL
* CC[C@H](C)[C@@H](NC(=O)[C@@H](NC(=O)[C@H](CCC(=O)O)NC(=O)[C@H](Cc1ccccc1)NC(=O)[C@@H](CCN)NC(=O)[C@H](CCN)NC(=O)[C@H](CO)NC(=O)[C@@H](Cc1c[nH]c2ccccc12)NC(=O)[C@@H](CO)NC(=O)CNC(=O)[C@@H](CCN)NC(=O)[C@H](NC(=O)COCCOCCOC)C(C)C)C(C)C)C(=O)N[C@@H](C)C(=O)O | > 100 µg/mL
